For each record, write down the corresponding selectivity ratio.
# Test Method Notes: Selectivity index, ratio of EC50 for hemolytic activity in human RBC assessed as hemolysis to MIC for antimicrobial activity against Bacillus subtilis 168 assessed as inhibition of bacterial growth
# Type: toxicity
# Assay Context: human red blood cells (erythrocytes), read-out: Selectivity Index

# selectivity ratio of N=C(N)NCCCN1C(=O)N(CCCNC(=N)N)C(Cc2cc(C(F)(F)F)cc(C(F)(F)F)c2)(Cc2cc(C(F)(F)F)cc(C(F)(F)F)c2)C1=O = > 245

Note to self: selectivity ratio recorded for N=C(N)NCCCCN1C(=O)N(CCCCNC(=N)N)C(Cc2cc(C(F)(F)F)cc(C(F)(F)F)c2)(Cc2cc(C(F)(F)F)cc(C(F)(F)F)c2)C1=O.O=C(O)C(F)(F)F.O=C(O)C(F)(F)F was 192

Recorded result, N=C(N)NCCCN1C(=O)N(CCCNC(=N)N)C(Cc2ccc(Br)c3ccccc23)(Cc2ccc(Br)c3ccccc23)C1=O.O=C(O)C(F)(F)F.O=C(O)C(F)(F)F , selectivity ratio: 103

Entry under test: N=C(N)NCCCN1C(=O)N(CCCNC(=N)N)C(Cc2cc(Br)cc(Br)c2)(Cc2cc(Br)cc(Br)c2)C1=O.O=C(O)C(F)(F)F.O=C(O)C(F)(F)F . Its selectivity ratio was 122

Lookup result for NCCCCN1C(=O)N(CCCCN)C(Cc2ccc(Br)c(Cl)c2)(Cc2ccc(Br)c(Cl)c2)C1=O.O=C(O)C(F)(F)F.O=C(O)C(F)(F)F ; measured selectivity ratio: > 110

In plain terms, N=C(N)NCCCN1C(=O)N(CCCNC(=N)N)C(Cc2ccc(Br)c(Cl)c2)(Cc2ccc(Br)c(Cl)c2)C1=O has a documented selectivity ratio of > 234

Entry N=C(N)NCCCCN1C(=O)N(CCCCNC(=N)N)C(Cc2cc(Br)cc(Br)c2)(Cc2cc(Br)cc(Br)c2)C1=O.O=C(O)C(F)(F)F.O=C(O)C(F)(F)F — recorded selectivity ratio = 206

# selectivity ratio (compound: N=C(N)NCCCCN1C(=O)N(CCCCNC(=N)N)C(Cc2ccc(Br)c(Cl)c2)(Cc2ccc(Br)c(Cl)c2)C1=O.O=C(O)C(F)(F)F.O=C(O)C(F)(F)F ) is 347

Lab note: measured selectivity ratio of NCCCN1C(=O)N(CCCN)C(Cc2cc(C(F)(F)F)cc(C(F)(F)F)c2)(Cc2cc(C(F)(F)F)cc(C(F)(F)F)c2)C1=O.O=C(O)C(F)(F)F.O=C(O)C(F)(F)F was 50

Briefly, selectivity ratio measured for NCCCN1C(=O)N(CCCN)C(Cc2cc(Br)cc(Br)c2)(Cc2cc(Br)cc(Br)c2)C1=O.O=C(O)C(F)(F)F.O=C(O)C(F)(F)F : 86

* * *

# Test Method Notes: Selectivity index, ratio of EC50 for hemolytic activity in human RBC assessed as hemolysis to MIC for antimicrobial activity against Staphylococcus aureus ATCC 9144 assessed as inhibition of bacterial growth
# Type: toxicity
# Assay Context: human red blood cells (erythrocytes), read-out: Selectivity Index
Experimental Readout: selectivity ratio
Respond using a number only.

So for N=C(N)NCCCN1C(=O)N(CCCNC(=N)N)C(Cc2cc(Br)cc(Br)c2)(Cc2cc(Br)cc(Br)c2)C1=O.O=C(O)C(F)(F)F.O=C(O)C(F)(F)F , the logged selectivity ratio turned out to be 243

The compound N=C(N)NCCCN1C(=O)N(CCCNC(=N)N)C(Cc2ccc(Br)c3ccccc23)(Cc2ccc(Br)c3ccccc23)C1=O.O=C(O)C(F)(F)F.O=C(O)C(F)(F)F showed selectivity ratio equal to 103

Summary for this compound, N=C(N)NCCCCN1C(=O)N(CCCCNC(=N)N)C(Cc2cc(Br)cc(Br)c2)(Cc2cc(Br)cc(Br)c2)C1=O.O=C(O)C(F)(F)F.O=C(O)C(F)(F)F : selectivity ratio is 206

// N=C(N)NCCCCN1C(=O)N(CCCCNC(=N)N)C(Cc2cc(C(F)(F)F)cc(C(F)(F)F)c2)(Cc2cc(C(F)(F)F)cc(C(F)(F)F)c2)C1=O.O=C(O)C(F)(F)F.O=C(O)C(F)(F)F : selectivity ratio value = 192

Sure, the documented selectivity ratio for NCCCN1C(=O)N(CCCN)C(Cc2cc(C(F)(F)F)cc(C(F)(F)F)c2)(Cc2cc(C(F)(F)F)cc(C(F)(F)F)c2)C1=O.O=C(O)C(F)(F)F.O=C(O)C(F)(F)F is 25
